Examples of molecules with documented Plant response rating, Sedge, Umbrella follow.
- Test system: sedge, umbrella (small-flower umbrella sedge, Cyperus difformis)
- assayDetails: Test B flooded paddy test, umbrella sedge
- Format: in vivo
- cond: 250 g ai/ha, Flood; visual rating after 13 to 15 days; scale 0 to 100, 0 is no effect, 100 is complete control
// no unit string in output, number only

Form field Plant response rating, Sedge, Umbrella, entry FC(F)(F)CCOc1c(Cl)cccc1Oc1ncc(Cl)cn1 [Compound 43] : 90

Form field Plant response rating, Sedge, Umbrella, entry FC(F)(F)CCCOc1c(Oc2ncc(Cl)cn2)cccc1C(F)(F)F [Compound 54] : 100

Form field Plant response rating, Sedge, Umbrella, entry N#CCCCOc1c(I)cccc1Oc1ncc(Cl)cn1 [Compound 67] : 95

Form field Plant response rating, Sedge, Umbrella, entry FCCCOc1c(F)cccc1Oc1ncc(Cl)cn1 [Compound 26] : 0

Consider the additional molecule presented here.
Form field Plant response rating, Sedge, Umbrella, entry N#Cc1cccc(Oc2ncc(F)cn2)c1OCCC(F)(F)F [Compound 40] : 70

All figures here come from patent US10485235B2.
